Test Summary: Human HepG2 cell viability assay in 384 well format
Type: toxicity, cell-based
Set-up: dose 125 nL, time 70.5 hour; concentration not given beside the values
Condition Set: HepG2 cells, read-out: Inhibition
Measured cytotoxicity at 70.5 h by item
Numeric answer only, unit % assumed.

Compound: COCc1ccc(C(=O)N2CCC(c3cc4ncc(C)nc4[nH]3)C2)cc1 (stereo unspecified)
Measurement Unit: %
Reported Result: -4.31
--
Compound: CCc1nc2n(n1)CC(NCc1nnc(C(C)C)o1)CC2 (stereo unspecified)
Measurement Unit: %
Reported Result: 19.3
--
Compound: O=C(CCc1cc2n(n1)CCCN(C(=O)c1ccccn1)C2)NC1CC1
Measurement Unit: %
Reported Result: -4.46
--
Compound: O=C(CN(Cc1ccco1)C1CC1)Nc1ccc(Br)cn1
Measurement Unit: %
Reported Result: -17.6
--
Compound: Cc1noc(NC(=O)c2ccc(Br)s2)n1
Measurement Unit: %
Reported Result: 24.3
--
Compound: O=C(O)C1CCCCN1C(=O)c1cccc(C(F)(F)F)c1 (stereo unspecified)
Measurement Unit: %
Reported Result: -9.81
--
Compound: CNc1nc(N2C[C@H](NC(=O)CCOC)[C@@H](C3CC3)C2)nc2c1CCC2
Measurement Unit: %
Reported Result: -15.7
--
Compound: Cc1n[nH]c(C2CN(Cc3csc(C4CCCC4)n3)CCO2)n1 (stereo unspecified)
Measurement Unit: %
Reported Result: -6.59

For reference, reported cytotoxicity at 70.5 h for "Clc1ccc(Cc2nc(CNCCn3cccn3)cs2)cc1" stands at -1.63

For reference, reported cytotoxicity at 70.5 h for "Cc1nc(CO[C@H]2CN(Cc3ccccn3)[C@@H]3CCCO[C@H]23)cs1" stands at 6.92

For reference, reported cytotoxicity at 70.5 h for "Cn1cccc1C(=O)N1CCc2ncnc(C3CC3)c2CC1" stands at -0.695

* * *

Measured cytotoxicity at 70.5 h by item
Test Summary: Human HepG2 cell viability assay in 384 well format
Type: toxicity, cell-based
Design: dose 125 nL, time 70.5 hour; concentration not given beside the values
Condition Set: HepG2 cells, read-out: Inhibition
Numeric answer only, unit % assumed.

Worked examples, 2 molecules total:
Molecule: COCCN(Cc1ccccc1)Cc1csc(-c2ncccn2)n1
Measurement Unit: %
cytotoxicity at 70.5 h: -4.86

Molecule: CCc1cc2c(N3CCCC(c4ccn[nH]4)C3)ncnc2s1 (stereo unspecified)
Measurement Unit: %
cytotoxicity at 70.5 h: 2.73

Then this molecule:
For reference, reported cytotoxicity at 70.5 h for CC(=O)N1CCc2nc(C3CCN(c4ncccn4)C3)ncc2C1 (stereo unspecified) stands at -0.395

* * *

Test Summary: Human HepG2 cell viability assay in 384 well format
Format: toxicity, cell-based
Design: dose 125 nL, time 70.5 hour; concentration not given beside the values
Condition Set: HepG2 cells, read-out: Inhibition
Measured Quantity: cytotoxicity at 70.5 h (%)
Numeric answer only, unit % assumed.

Worked examples, 8 compounds total:
Compound: O=C(Cc1ccccn1)N1CCC2(CC1)CC(Oc1ccccn1)CO2 (centres undefined)
Reported Result: -9.02

Compound: Cc1nnsc1CN1CC[C@@](O)(C2CCC2)[C@H](C)C1
Reported Result: -7.08

Compound: CC(C)(C)n1ncc2c1NC(=O)CSC2c1ccsc1 (centres undefined)
Reported Result: -13.1

Compound: CNC(=O)C(C)NC(=O)c1cc(COc2ccc(OC)cc2Cl)[nH]n1 (centres undefined)
Reported Result: -2.95

Compound: COc1ccc(C)cc1CN1CCN(Cc2nccn2C)C(C)C1 (centres undefined)
Reported Result: 7.41

Compound: C[S+]([O-])c1cccc(NC(=O)N[C@H](CCO)c2ccccc2)c1 (some centres undefined)
Reported Result: -2.3

Compound: CCc1nc(N2CCC3(CC2)OCCCC3O)ncc1C (centres undefined)
Reported Result: -2.39

Compound: Cc1cc(C)nc(NC2CCN(CCOC(C)C)CC2)n1
Reported Result: 1.5

For reference, reported cytotoxicity at 70.5 h for CS(=O)(=O)NC1CCc2[nH]c(=O)ccc2C1 (centres undefined) stands at -4.24

The measurements presented in this section are drawn from ChEMBL document CHEMBL3507680.
